Study System: T1, human SLITRK6 on cells (human, UniProt Q9H5Y7 27-841)
T1 construct: whole, on cells
Measurement Notes: flow cytometry on RT4 cells
pEC50: −log10 of the molar value.
Property: pEC50; scope: individual binders
Endpoint Label: pEC50

# Binder, Endpoint Label, Reported Value
data = [
    ("hu1H2-03 (antibody, V domains shown, see m20) VH: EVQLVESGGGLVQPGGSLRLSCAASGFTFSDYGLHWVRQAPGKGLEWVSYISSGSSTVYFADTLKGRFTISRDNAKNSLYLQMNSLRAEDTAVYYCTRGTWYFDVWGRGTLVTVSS VL: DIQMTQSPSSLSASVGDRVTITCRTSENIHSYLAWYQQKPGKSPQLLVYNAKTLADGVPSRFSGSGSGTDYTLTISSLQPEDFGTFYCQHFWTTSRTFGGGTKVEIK", "pEC50", 9.55),
    ("hu14G1-03 (antibody, V domains shown) VH: EVQLVESGGGLVQPGGSLRLSCAASGFTFSDYGMHWVRQAPGKGLEWVSYISPGSSTIYYADTMKGRFTISRDNAKNSLYLQMNSLRAEDTAVYYCARAYGGSYWYFAVWGQGTLVTVSS VL: DIQMTQSPSSLSASVGDRVTITCRASGNIHSYLAWYQQKPGKSPQLLVYNAKTLADGVPSRFSGSGSGTDYTLTISSLQPEDFGTYYCQHFWSTPYTFGGGTKLEIK", "pEC50", 9.49),
    ("hu1H2-13 (antibody, V domains shown) VH: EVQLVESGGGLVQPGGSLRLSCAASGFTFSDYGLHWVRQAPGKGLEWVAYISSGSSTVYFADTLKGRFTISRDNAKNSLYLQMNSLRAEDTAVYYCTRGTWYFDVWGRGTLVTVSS VL: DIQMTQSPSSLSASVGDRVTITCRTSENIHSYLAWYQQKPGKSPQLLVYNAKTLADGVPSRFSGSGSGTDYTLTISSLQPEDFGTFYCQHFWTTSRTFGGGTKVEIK", "pEC50", 9.57),
    ("Sirtratumab (antibody, V domains shown, Prior-art benchmark antibody; also called Sirtratuzumab) VH: QVQLVESGGGVVQPGRSLRLSCAASGFTFSSYGMHWVRQAPGKGLEWVAVIWYDGSNQYYADSVKGRFTISRDNSKNTLFLQMHSLRAEDTAVYYCARGLTSGRYGMDWGQGTTVTVSS VL: DIVMTQSPLSLPVTPGEPASISCRSSQSLLLSHGFNYLDWYLQKPGQSPQLLIYLGSSRASGVPDRFSGSGSGTDFTLKISRVEAEDVGLYYCMQPLQIPWTFGQGTKVEIK", "pEC50", 9.70),
]

These data points were gathered from patent US20250296992A1.
